Test: Cytotoxicity against GPK cells by [3H]thymidine incorporation assay
Assay type: functional, cell-based
Conditions: Cavia porcellus
In this section, each of the compounds is paired with its reported IC50.
// units = µg/mL; emit number, no label

As a guide, the following entries are already answered.
INSERT INTO measurements (compound, test_readout, numeric_result) VALUES
  ('O=c1ccc2nccc3c4ccccc4n1c23 [CANTHIN-6-ONE]', 'IC50', 1.11),
  ('COc1cnc2ccc(=O)n3c4ccccc4c1c23', 'IC50', 5.76),
  ('O=c1ccc2c3c(cc[n+]2[O-])c2ccccc2n13', 'IC50', 4.21);

Prompt: Quick one: IC50 of COc1cc2nccc3c4ccccc4n(c1=O)c23 [5-METHOXYCANTHINONE] ?
Response: 5.44

These measurements were taken from ChEMBL document CHEMBL1145656.
